// provenance: paper PMC7826273

System Under Test: T1, FmhB (Staphylococcus aureus, UniProt Q2FVZ4 1-421)
T1 sequence: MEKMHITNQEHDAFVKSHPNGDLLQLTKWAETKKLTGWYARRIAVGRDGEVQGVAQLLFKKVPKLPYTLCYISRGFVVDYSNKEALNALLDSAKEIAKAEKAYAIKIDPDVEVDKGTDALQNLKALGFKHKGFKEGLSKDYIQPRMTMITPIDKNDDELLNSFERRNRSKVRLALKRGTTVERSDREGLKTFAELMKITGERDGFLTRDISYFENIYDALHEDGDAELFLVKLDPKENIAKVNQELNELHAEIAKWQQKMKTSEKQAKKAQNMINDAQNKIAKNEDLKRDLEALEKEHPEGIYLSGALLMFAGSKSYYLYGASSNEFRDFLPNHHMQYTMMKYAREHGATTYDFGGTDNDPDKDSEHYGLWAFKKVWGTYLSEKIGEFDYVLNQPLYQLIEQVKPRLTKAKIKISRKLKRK
Assay Info: competition
Readout Name: Ki (nM)
Answers are plain numbers, in nM.

In: Please look up its Ki: NP2 stable Gly-tRNA analogue, 2' isomer (structured_RNA, 2'-(1,4-triazole-alkyne; nonadiyne) on terminal A; penultimate C is dC (pdCpA ligation)) RNA: GCGGGAGUAGUUCAACUUUUAGAACACGUUCCUUCCCGGAACGAGGUAUAGGUGUAAAUCCUAUCUUCCGCUCCA
Out: 8.6
